Origin of the recorded values: BindingDB's records for doi:10.1021/cc100073a

- assayed_system: Egl nine homolog 1 (Homo sapiens, UniProt Q9GZT9)
- Sequence (Q9GZT9 whole entry): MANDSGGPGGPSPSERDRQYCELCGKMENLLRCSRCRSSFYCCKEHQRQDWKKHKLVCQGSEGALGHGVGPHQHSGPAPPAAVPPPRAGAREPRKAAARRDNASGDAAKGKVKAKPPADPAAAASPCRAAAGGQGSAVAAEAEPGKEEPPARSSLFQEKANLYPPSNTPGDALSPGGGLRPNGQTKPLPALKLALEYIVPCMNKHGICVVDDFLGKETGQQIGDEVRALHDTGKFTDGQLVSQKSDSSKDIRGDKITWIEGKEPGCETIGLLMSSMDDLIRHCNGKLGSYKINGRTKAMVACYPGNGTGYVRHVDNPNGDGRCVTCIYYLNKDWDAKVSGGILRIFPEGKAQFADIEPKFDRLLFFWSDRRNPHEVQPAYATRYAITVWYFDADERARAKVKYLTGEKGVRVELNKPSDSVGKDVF
pIC50: −log10 of the molar value.
recorded_endpoint: pIC50

a. CC(=O)N[C@@H](Cc1ccc2ccccc2c1)C(=O)NCC(=O)NCc1ccc2c(c1)c(O)c(C(=O)NCC(=O)O)c(=O)n2C [PHD Inhibitor, 12{4,1,2}]
b. CC(=O)NCc1ccc2c(c1)c(O)c(C(=O)NCC(=O)O)c(=O)n2C [PHD Inhibitor, 5]
// pick larger pIC50 from pair: a vs b Answer by stating the label of the chosen item. a
(a: 7.38, b: 6.26)

1. Cn1c(=O)c(C(=O)NCC(=O)O)c(O)c2cc(CNC(=O)[C@H](Cc3ccccc3)NC(=O)[C@H](Cc3ccccc3)NC(=O)CCN3CCOCC3)ccc21 [PHD Inhibitor, 12{1,5,3}]
2. CC(=O)N[C@@H](Cc1ccccc1)C(=O)NCc1ccc2c(c1)c(O)c(C(=O)NCC(=O)O)c(=O)n2C [PHD Inhibitor, 8{1}]
// pick larger pIC50 from pair: 1 vs 2 Answer by stating the label of the chosen item. 2
(2: 6.32, 1: 5.53)
